# Test system: Fibroblast
# assay remarks: Incucyte cell viability with human fibroblast; also: filed as whole numbers so only -1 and 0 and 1 occur
# Type: toxicity, cell-based
# measurement conditions: 18 h, 10 µM, compound concentration 10 uM, replicate number 1, timepoint 18 hours

smiles input | target entity | Growth Rate
COc1cc(Nc2nccc(-c3cnn4nc(OC)ccc34)n2)cc(C(F)(F)F)c1 | Fibroblast | 0
CNC(=O)Nc1ccc2c(c1)[C@@]1(CC2)OC(=O)N(CC(=O)N(Cc2ccc(F)cc2)[C@@H](C)C(F)(F)F)C1=O | Fibroblast | 0
C[C@H](NC[C@H](O)CP(=O)(O)CC1CCCCC1)c1ccc(Cl)c(Cl)c1.Cl | Fibroblast | 0
Cl.O=C(O)c1cc(-c2ccc(C3CCNCC3)cc2)c2ccc(-c3ccc(C(F)(F)F)cc3)cc2c1 | Fibroblast | 1
CC(C)c1noc(N2CCC(COc3ccc(-c4ccc(S(C)(=O)=O)cc4)nc3)CC2)n1 | Fibroblast | 0
CC(C)CC(=O)Nc1[nH]nc2c1CN(C(=O)C1CCN(C)CC1)C2(C)C | Fibroblast | 0
CN(c1ccccc1CNc1nc(Nc2ccc3c(c2)CC(=O)N3)ncc1C(F)(F)F)S(C)(=O)=O | Fibroblast | 0
Cc1noc([C@H]2C[C@@H](c3ccc(C(F)(F)F)cc3)CN(C(=O)N3CCS(=O)(=O)C3)C2)n1 | Fibroblast | 0
Cc1cc(NC(=O)c2cccc(S(F)(F)(F)(F)F)c2)cc(-n2ccn3nc(-c4cccnc4)cc23)c1 | Fibroblast | 0
Cc1c[nH]c2nccc(Oc3c(F)cc(Nc4cc(Cl)nc(N)n4)cc3F)c12 | Fibroblast | 0
O=c1cc(N2CCOCC2)oc2c(-c3cccc4c3sc3ccccc34)cccc12 | Fibroblast | 0
COc1cc2c(cc1NS(=O)(=O)c1ccc(Br)cc1C)n(C)c(=O)n2C | Fibroblast | 1
Nc1ncnc2c1ccn2[C@@H]1O[C@H]([C@H](O)c2ccccc2)[C@@H](O)[C@H]1O | Fibroblast | 1
O=C(O)C1CN(Cc2ccc(OCc3ccc(Cl)c(Cl)c3)cc2)C1 | Fibroblast | 0
CC1CCN(CC[C@H]2CCCN2S(=O)(=O)c2cccc(O)c2)CC1.Cl | Fibroblast | 1
Cc1nc(N2CC[C@H](O)C2)ncc1-c1cc(C(F)(F)F)cc2[nH]ncc12 | Fibroblast | 0
C#Cc1cccc(Nc2ncnc3cc(OCCOC)c(OCCOC)cc23)c1 | Fibroblast | 0
Cc1cc(-n2nc(Cc3cc(F)cc(C(F)(F)F)c3)nc2C)ccc1C(N)=O | Fibroblast | 1

* * *

# System: Fibroblast
# assay remarks: Multiplex assay against human fibroblast
# Type: toxicity, cell-based
# measurement conditions: 12 h, 10 µM, compound concentration 10 uM, replicate 1
readout type: Population Fragmented Nuclei (%)

compound | observed value
C=CC(=O)Nc1cccc(Sc2nc(Nc3ccc(N4CCN(C)CC4)cc3)ncc2Cl)c1 | 34%
COc1ccc(-c2ccc3ncc4c(c3c2)n(-c2ccc(N3CCNCC3)c(C(F)(F)F)c2)c(=O)n4C)cn1.O=C(O)/C=C\C(=O)O [BGT-226] | 27%
CCCSc1nc(N[C@@H]2C[C@H]2c2ccc(F)c(F)c2)c2nnn([C@@H]3C[C@H](OCCO)[C@@H](O)[C@H]3O)c2n1 [TICAGRELOR] | 29%
Cc1ccccc1C(c1ccccc1C)N1C2CCC1CC(O)(c1ccccc1)C2 (configuration not stated) | 23%
Cl.O=C(O)c1cc(-c2ccc(C3CCNCC3)cc2)c2ccc(-c3ccc(C(F)(F)F)cc3)cc2c1 | 27%
CC(C)(C)NC[C@H](O)COc1nsnc1N1CCOCC1 [TIMOLOL] | 28%
CC(C)c1noc(N2CCC(COc3ccc(-c4ccc(S(C)(=O)=O)cc4)nc3)CC2)n1 [GSK-1292263] | 21%

* * *

Reported Population Apoptotic (%) values are given for each entry in this list.
# System: Fibroblast
# assay remarks: Multiplex assay against human fibroblast
# Type: toxicity, cell-based
# measurement conditions: 12 h, 1 µM, compound concentration 1 uM, replicate 1
readout type: Population Apoptotic (%)

compound | target entity | readout type | observed value
Cc1cccc(CN2CCN(C(c3ccccc3)c3ccc(Cl)cc3)CC2)c1.Cl.Cl (stereo not given) | Fibroblast | Population Apoptotic (%) | 64
CCCSc1nc(N[C@@H]2C[C@H]2c2ccc(F)c(F)c2)c2nnn([C@@H]3C[C@H](OCCO)[C@@H](O)[C@H]3O)c2n1 | Fibroblast | Population Apoptotic (%) | 55
O=c1[nH]c2ccccc2n1C1CCN(Cc2ccc(-c3[nH]c4cc5ncnc5cc4nc3-c3ccccc3)cc2)CC1 | Fibroblast | Population Apoptotic (%) | 66
Cl.O=C(O)c1cc(-c2ccc(C3CCNCC3)cc2)c2ccc(-c3ccc(C(F)(F)F)cc3)cc2c1 | Fibroblast | Population Apoptotic (%) | 65
COc1ccccc1CN[C@H]1C2CCN(CC2)[C@H]1C(c1ccccc1)c1ccccc1 | Fibroblast | Population Apoptotic (%) | 64
Cc1ccc(C)c(Oc2ccncc2C(=O)N2CCN(C3CC3)c3ccccc32)c1 | Fibroblast | Population Apoptotic (%) | 75
O=C(c1cc2c(cc1F)OC(c1ccc(F)cc1)(c1ccc(Cl)cc1Cl)O2)N1CCOCC1 (stereo not given) | Fibroblast | Population Apoptotic (%) | 51
CNC(=O)Nc1ccc2c(c1)[C@@]1(CC2)OC(=O)N(CC(=O)N(Cc2ccc(F)cc2)[C@@H](C)C(F)(F)F)C1=O | Fibroblast | Population Apoptotic (%) | 68
COc1ccc(-c2ccc3ncc4c(c3c2)n(-c2ccc(N3CCNCC3)c(C(F)(F)F)c2)c(=O)n4C)cn1.O=C(O)/C=C\C(=O)O | Fibroblast | Population Apoptotic (%) | 67
COc1cc(Nc2nccc(-c3cnn4nc(OC)ccc34)n2)cc(C(F)(F)F)c1 | Fibroblast | Population Apoptotic (%) | 42
CC(C)CC(=O)Nc1[nH]nc2c1CN(C(=O)C1CCN(C)CC1)C2(C)C | Fibroblast | Population Apoptotic (%) | 81
CNC(=O)Nc1ccc(-c2nc(N3CC4CCC(C3)O4)c3cnn(C4CCC5(CC4)OCCO5)c3n2)cc1 | Fibroblast | Population Apoptotic (%) | 47
CC(C)c1noc(N2CCC(COc3ccc(-c4ccc(S(C)(=O)=O)cc4)nc3)CC2)n1 | Fibroblast | Population Apoptotic (%) | 65
COc1cc2ncn(-c3cc(OCc4ccccc4C(F)(F)F)c(C(N)=O)s3)c2cc1OC [GW843682X] | Fibroblast | Population Apoptotic (%) | 62
CC(C)(C)NC[C@H](O)COc1nsnc1N1CCOCC1 | Fibroblast | Population Apoptotic (%) | 71

* * *

Reported Population Normal (%) values are given for each entry in this list.
# Tested on: U2OS
# assay remarks: Multiplex assay against U2OS
# Type: toxicity, cell-based
# measurement conditions: human, 24 h, 10 µM, compound concentration 10 uM, replicate 2

molecule | Population Normal (%)
CCc1nn(CCCN2CCN(c3cccc(Cl)c3)CC2)c(=O)n1CCOc1ccccc1.Cl [NEFAZODONE HYDROCHLORIDE] | 98
CC(C)(C)NC[C@H](O)COc1nsnc1N1CCOCC1 | 97
CC(C)CC(=O)Nc1[nH]nc2c1CN(C(=O)C1CCN(C)CC1)C2(C)C | 83
COC(=O)C1=C(C)NC(C)=C(C(=O)OCCCN2CCC(c3ccccc3)(c3ccccc3)CC2)[C@H]1c1cccc([N+](=O)[O-])c1 | 88
Cl.O=C(O)c1cc(-c2ccc(C3CCNCC3)cc2)c2ccc(-c3ccc(C(F)(F)F)cc3)cc2c1 | 91
CN1CCN(Cc2ccc(Nc3ncc(Cl)c(Nc4ccccc4S(=O)(=O)N(C)C)n3)cc2)CC1 | 85
COc1ccc(-c2ccc3ncc4c(c3c2)n(-c2ccc(N3CCNCC3)c(C(F)(F)F)c2)c(=O)n4C)cn1.O=C(O)/C=C\C(=O)O | 35
C=CC(=O)Nc1cccc(Sc2nc(Nc3ccc(N4CCN(C)CC4)cc3)ncc2Cl)c1 | 87

* * *

Reported Growth Rate values are given for each entry in this list.
# System: U2OS
# assay remarks: Incucyte cell viability with U2OS; also: filed as whole numbers so only -1 and 0 and 1 occur
# Format: toxicity, cell-based
# measurement conditions: human, 6 h, 10 µM, compound concentration 10 uM, replicate number 1, timepoint 6 hours
readout type: Growth Rate

smiles input | observed value
Cc1cc(C)c(-n2ccn3nc(-c4cccnc4)cc23)cc1NC(=O)c1cc(C#N)cc(S(F)(F)(F)(F)F)c1 | 1
COc1ccc(-c2ccc3ncc4c(c3c2)n(-c2ccc(N3CCNCC3)c(C(F)(F)F)c2)c(=O)n4C)cn1.O=C(O)/C=C\C(=O)O | 0
CCc1ccc(OCc2ccccc2C(=O)Nc2ccc3nc(C)cc(N)c3c2)cc1.Cl | 0
CSc1cccnc1N1CCN(Cc2nc3ccccc3[nH]2)CC1 | 0
COc1cc(Nc2nccc(-c3cnn4nc(OC)ccc34)n2)cc(C(F)(F)F)c1 | 0

* * *

Reported Population Membrane Permeable-Phenotype (%) values are given for each entry in this list.
# System: HEK-293T
# assay remarks: Multiplex assay against HEK293T
# Assay type: toxicity, cell-based
# measurement conditions: human, 12 h, 10 µM, compound concentration 10 uM, replicate 2
readout type: Population Membrane Permeable-Phenotype (%)

compound | unit name | observed value
COc1ccc(-c2ccc3ncc4c(c3c2)n(-c2ccc(N3CCNCC3)c(C(F)(F)F)c2)c(=O)n4C)cn1.O=C(O)/C=C\C(=O)O [BGT-226] | % | 11
COc1cc2ncn(-c3cc(OCc4ccccc4C(F)(F)F)c(C(N)=O)s3)c2cc1OC [GW843682X] | % | 11
COc1ccccc1CN[C@H]1C2CCN(CC2)[C@H]1C(c1ccccc1)c1ccccc1 [CP-96345] | % | 6
CN1CCN(Cc2ccc(Nc3ncc(Cl)c(Nc4ccccc4S(=O)(=O)N(C)C)n3)cc2)CC1 [DUBERMATINIB] | % | 2
CC(C)NC(=O)N1CC[C@H](NC2=Nc3cc(F)ccc3N(CC(F)F)c3ccc(Cl)cc32)C1 | % | 10
CC(C)(C)NC[C@H](O)COc1nsnc1N1CCOCC1 [TIMOLOL] | % | 4
CC(C)CC(=O)Nc1[nH]nc2c1CN(C(=O)C1CCN(C)CC1)C2(C)C [PHA-793887] | % | 0
CNC(=O)Nc1ccc2c(c1)[C@@]1(CC2)OC(=O)N(CC(=O)N(Cc2ccc(F)cc2)[C@@H](C)C(F)(F)F)C1=O [A-486] | % | 2
CC1=C(C(=O)Nc2cc3cn[nH]c3cc2F)C(c2ccc(C(F)(F)F)cc2)CC(=O)N1 (stereo unspecified) | % | 11
C=CC(=O)Nc1cccc(Oc2nc(Nc3ccc(N4CCN(C)CC4)cc3OC)ncc2Cl)c1 | % | 4
COC(=O)C1=C(C)NC(C)=C(C(=O)OCCCN2CCC(c3ccccc3)(c3ccccc3)CC2)[C@H]1c1cccc([N+](=O)[O-])c1 [NIGULDIPINE] | % | 66
